# ASSAY SYSTEM: T1, macaca fascicularis (mf) PRLR.mmh (soluble monomeric monkey PRLR) (Macaca fascicularis)
# T1 construct: called soluble monomeric PRLR protein
# T1 chain: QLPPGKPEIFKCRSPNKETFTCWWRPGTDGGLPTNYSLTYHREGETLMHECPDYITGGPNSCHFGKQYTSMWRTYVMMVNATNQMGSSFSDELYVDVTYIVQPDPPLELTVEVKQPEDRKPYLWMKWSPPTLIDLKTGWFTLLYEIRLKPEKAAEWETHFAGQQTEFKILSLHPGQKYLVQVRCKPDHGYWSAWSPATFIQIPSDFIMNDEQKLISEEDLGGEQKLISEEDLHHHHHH
# ASSAY NOTES: SPR Biacore, 25 C, mAb capture
Provide the recorded kon for the entries that follow.
Answers are plain numbers, in M⁻¹ s⁻¹.

I need kon for every entry listed below, if you could help.
1. H1H6792P (antibody, human IgG1, V domains shown, Human IgG1 Fc (H1H)) VH: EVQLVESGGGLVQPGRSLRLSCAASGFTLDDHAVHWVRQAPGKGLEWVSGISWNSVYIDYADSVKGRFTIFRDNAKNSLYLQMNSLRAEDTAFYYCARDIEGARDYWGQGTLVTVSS VL: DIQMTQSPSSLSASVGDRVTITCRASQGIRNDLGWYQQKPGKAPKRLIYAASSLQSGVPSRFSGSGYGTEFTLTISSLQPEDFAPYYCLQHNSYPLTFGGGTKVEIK
2. H1H6976N (antibody, human IgG1, V domains shown, Tested with human IgG1 Fc (H1H); also called H2M6976N) VH: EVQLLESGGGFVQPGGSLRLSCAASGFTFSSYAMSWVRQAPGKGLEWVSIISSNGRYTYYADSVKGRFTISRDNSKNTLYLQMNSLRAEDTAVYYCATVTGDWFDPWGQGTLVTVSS VL: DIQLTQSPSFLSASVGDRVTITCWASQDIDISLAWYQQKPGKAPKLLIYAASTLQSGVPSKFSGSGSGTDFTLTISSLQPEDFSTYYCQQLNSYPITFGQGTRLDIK
3. H1H6797P (antibody, human IgG1, V domains shown, Human IgG1 Fc (H1H)) VH: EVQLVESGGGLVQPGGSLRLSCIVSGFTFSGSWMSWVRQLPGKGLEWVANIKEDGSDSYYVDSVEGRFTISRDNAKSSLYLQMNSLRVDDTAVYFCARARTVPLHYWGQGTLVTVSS VL: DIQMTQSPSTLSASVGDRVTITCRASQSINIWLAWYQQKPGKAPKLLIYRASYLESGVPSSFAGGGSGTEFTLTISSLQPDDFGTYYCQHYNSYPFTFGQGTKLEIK

**Result**
236000
466000
670000
